Assay details: Intrinsic dissolution of various nefazodone salts in water at 37° C.
Assay type: physicochemical

# Molecule, solubility / dissolution rate in water
rows = [
    ("CCc1nn(CCCN2CCN(c3cccc(Cl)c3)CC2)c(=O)n1CCOc1ccccc1 [Acetate]", "Low solubilities"),
    ("CCc1nn(CCCN2CCN(c3cccc(Cl)c3)CC2)c(=O)n1CCOc1ccccc1 [Tosylate]", "slow"),
    ("CCc1nn(CCCN2CCN(c3cccc(Cl)c3)CC2)c(=O)n1CCOc1ccccc1 [Nefazodone base]", "Low solubilities"),
    ("CCc1nn(CCCN2CCN(c3cccc(Cl)c3)CC2)c(=O)n1CCOc1ccccc1 [Succinate]", "Low solubilities"),
]

* * *

Assay details: Intrinsic dissolution of various nefazodone salts in water at 37° C.
Type: physicochemical
Condition details: pH of the aqueous medium after dissolution had occurred
Assay readout: Final pH

# Compound, Final pH
records = [
    ("CCc1nn(CCCN2CCN(c3cccc(Cl)c3)CC2)c(=O)n1CCOc1ccccc1 [Tosylate]", 4.4),
    ("CCc1nn(CCCN2CCN(c3cccc(Cl)c3)CC2)c(=O)n1CCOc1ccccc1 [DL-Tartrate]", 3.7),
    ("CCc1nn(CCCN2CCN(c3cccc(Cl)c3)CC2)c(=O)n1CCOc1ccccc1 [Succinate]", 5.0),
    ("CCc1nn(CCCN2CCN(c3cccc(Cl)c3)CC2)c(=O)n1CCOc1ccccc1 [Maleate]", 4.8),
]

* * *

Assay details: Intrinsic dissolution of various nefazodone salts in water at 37° C.
Format: physicochemical
Condition details: n = 2
Assay readout: Intrinsic Dissolution Rate (mg/min/cm 2)

Use the examples below as a reference point.
# Compound, Intrinsic Dissolution Rate [mg/min/cm 2]
measured = [
    ("CCc1nn(CCCN2CCN(c3cccc(Cl)c3)CC2)c(=O)n1CCOc1ccccc1 [DL-Tartrate]", 1.2),
    ("CCc1nn(CCCN2CCN(c3cccc(Cl)c3)CC2)c(=O)n1CCOc1ccccc1 [Succinate]", 0.16),
    ("CCc1nn(CCCN2CCN(c3cccc(Cl)c3)CC2)c(=O)n1CCOc1ccccc1 [DL-Malate]", 0.98),
    ("CCc1nn(CCCN2CCN(c3cccc(Cl)c3)CC2)c(=O)n1CCOc1ccccc1 [L-Malate]", 1.36),
    ("CCc1nn(CCCN2CCN(c3cccc(Cl)c3)CC2)c(=O)n1CCOc1ccccc1 [Tosylate]", 0.1),
]

[P] CCc1nn(CCCN2CCN(c3cccc(Cl)c3)CC2)c(=O)n1CCOc1ccccc1 [L-Tartrate]
[Q] CCc1nn(CCCN2CCN(c3cccc(Cl)c3)CC2)c(=O)n1CCOc1ccccc1 [Mesylate]
Which entry has a larger number for Intrinsic Dissolution Rate, P or Q ? Pick one and reply with its label.
Q

[P] CCc1nn(CCCN2CCN(c3cccc(Cl)c3)CC2)c(=O)n1CCOc1ccccc1 [D-Tartrate]
[Q] CCc1nn(CCCN2CCN(c3cccc(Cl)c3)CC2)c(=O)n1CCOc1ccccc1 [Acetate]
Which entry has a larger number for Intrinsic Dissolution Rate, P or Q ? Let me know the label of the one you choose.
P
(P: 1.13 mg/min/cm 2, Q: 0.03 mg/min/cm 2)
